- Type: in vivo, human (healthy subjects)
- Experimental Parameters: human, plasma, oral, 30 mg, AUCt, single 30 mg ER after high-fat breakfast, n = 12, mean ± SD
Reported Metric: AUC(0-t)

[in] Please give the measured AUC(0-t) for this compound: `CC[C@@H]1CN(C(=O)NCC(F)(F)F)C[C@@H]1c1cnc2cnc3[nH]ccc3n12`
[out] 564 ng·h/mL

###

- Type: in vivo, human (healthy subjects)
- Experimental Parameters: human, plasma, oral, 15 mg, AUCt, single 15 mg ER, fasting, n = 11, mean ± SD
Reported Metric: AUC(0-t) (ng·h/mL)
Unit ng·h/mL implied. Number only.

[in] Please give the measured AUC(0-t) for this compound: `CC[C@@H]1CN(C(=O)NCC(F)(F)F)C[C@@H]1c1cnc2cnc3[nH]ccc3n12`
[out] 227

###

- Test Details: Multiple-dose
- Type: in vivo, human (healthy subjects)
- Experimental Parameters: human, plasma, oral, 15 mg, AUC0–24, steady state (day 7), 15 mg once-daily ER, nonfasting, n = 12, mean ± SD
Reported Metric: AUC(0-t)
Mention the unit after the number when you answer.

[in] Please give the measured AUC(0-t) for this molecule: CC[C@@H]1CN(C(=O)NCC(F)(F)F)C[C@@H]1c1cnc2cnc3[nH]ccc3n12 [Upadacitinib]
[out] 317 ng·h/mL

###

- Test Details: Multiple-dose
- Assay type: in vivo, human (healthy subjects)
- Experimental Parameters: human, plasma, oral, 6 mg, AUC0–24, steady state (day 7), 6 mg twice-daily IR, fasting, n = 11, mean ± SD
Reported Metric: AUC(0-t) (ng·h/mL)
Unit ng·h/mL implied. Number only.

[in] Please give the measured AUC(0-t) for this compound: CC[C@@H]1CN(C(=O)NCC(F)(F)F)C[C@@H]1c1cnc2cnc3[nH]ccc3n12 [Upadacitinib]
[out] 288

###

- Test Details: Multiple-dose
- Format: in vivo, human (healthy subjects)
- Experimental Parameters: human, plasma, oral, 30 mg, AUC0–24, steady state (day 7), 30 mg once-daily ER, fasting, n = 11, mean ± SD
Reported Metric: AUC(0-t) (ng·h/mL)
Unit ng·h/mL implied. Number only.

[in] Please give the measured AUC(0-t) for this compound: `CC[C@@H]1CN(C(=O)NCC(F)(F)F)C[C@@H]1c1cnc2cnc3[nH]ccc3n12`
[out] 525

###

- Format: in vivo, human (healthy subjects)
- Experimental Parameters: human, plasma, oral, 12 mg, AUCt, single 12 mg IR, fasting, n = 11, mean ± SD
Reported Metric: AUC(0-t)
Mention the unit after the number when you answer.

[in] Please give the measured AUC(0-t) for this compound: `CC[C@@H]1CN(C(=O)NCC(F)(F)F)C[C@@H]1c1cnc2cnc3[nH]ccc3n12`
[out] 231 ng·h/mL

###

- Format: in vivo, human (healthy subjects)
- Experimental Parameters: human, plasma, oral, 12 mg, t1/2, single 12 mg IR, fasting, n = 11, mean ± SD
Reported Metric: half-life (h)
Unit h implied. Number only.

[in] Please give the measured half-life for this compound: CC[C@@H]1CN(C(=O)NCC(F)(F)F)C[C@@H]1c1cnc2cnc3[nH]ccc3n12 [Upadacitinib]
[out] 18.3
